# ASSAYED TARGET: PRMT5-MEP50 enzyme (Homo sapiens, UniProt O14744)
# Construct: One virus expresses full length human PRMT5 with Flag-tag at N-terminus
# Sequence (O14744 whole entry): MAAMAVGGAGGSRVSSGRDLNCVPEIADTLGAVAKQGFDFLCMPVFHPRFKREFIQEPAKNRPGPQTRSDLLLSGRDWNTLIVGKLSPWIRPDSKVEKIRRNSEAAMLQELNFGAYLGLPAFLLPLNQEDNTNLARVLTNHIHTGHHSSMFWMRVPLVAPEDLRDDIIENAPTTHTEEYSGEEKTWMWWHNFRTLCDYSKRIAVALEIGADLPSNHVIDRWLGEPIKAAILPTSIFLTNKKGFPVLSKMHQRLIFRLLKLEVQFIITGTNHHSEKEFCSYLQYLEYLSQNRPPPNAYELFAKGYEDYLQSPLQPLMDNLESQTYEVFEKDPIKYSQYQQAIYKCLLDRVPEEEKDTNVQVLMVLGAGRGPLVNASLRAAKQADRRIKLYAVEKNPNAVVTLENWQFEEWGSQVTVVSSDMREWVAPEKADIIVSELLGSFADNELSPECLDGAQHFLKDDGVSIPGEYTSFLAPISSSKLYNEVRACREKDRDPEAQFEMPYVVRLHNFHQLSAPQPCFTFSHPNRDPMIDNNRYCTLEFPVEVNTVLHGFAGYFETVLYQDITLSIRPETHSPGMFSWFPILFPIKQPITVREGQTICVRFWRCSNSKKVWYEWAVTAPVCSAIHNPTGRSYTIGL
# Sequence (Q9BQA1 whole entry partner): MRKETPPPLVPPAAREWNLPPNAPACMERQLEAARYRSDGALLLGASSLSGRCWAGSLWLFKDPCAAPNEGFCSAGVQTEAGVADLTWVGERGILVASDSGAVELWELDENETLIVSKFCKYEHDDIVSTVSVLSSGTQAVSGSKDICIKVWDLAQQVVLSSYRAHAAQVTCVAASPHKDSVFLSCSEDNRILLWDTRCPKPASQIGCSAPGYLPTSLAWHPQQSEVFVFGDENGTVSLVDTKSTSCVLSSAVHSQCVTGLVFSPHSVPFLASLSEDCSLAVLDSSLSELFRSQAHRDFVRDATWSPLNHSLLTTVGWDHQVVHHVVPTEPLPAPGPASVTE
# EXPERIMENT DESCRIPTION: In vitro assay (Assay 1): PRMT5-MEP50 high throughput mass spectrometer assay, inhibition of SAH formation
# Type: biochemical
# COND: individual measurements shown, read-out: pIC50 Assay 1 (converted)
PARAMETER MEASURED: IC50 (µM)

Sample records with IC50:
Nc1ncnc2c1ncn2[C@@H]1O[C@H](CN2CCC3(CCNCC3)C2)[C@@H](O)[C@H]1O [Compound 75] ... 39.8
CN1CCC2(CCCN2C[C@H]2O[C@@H](n3ccc4c(Cl)ncnc43)[C@H](O)[C@@H]2O)CC1 [Compound 208] ... 0.0759
NCC1CCCCN1C[C@H]1O[C@@H](n2ccc3c(N)ncnc32)[C@H](O)[C@@H]1O (stereo partly shown) [Compound 52] ... 0.0102

a = CN1CC2(C1)CN(C[C@H]1O[C@@H](n3ccc4c(N)ncnc43)[C@H](O)[C@@H]1O)CCO2 [Compound 92]
b = Nc1ncnc2c1ccn2[C@@H]1O[C@H](CN2CCCC23CCN(CC(F)(F)F)CC3)[C@@H](O)[C@H]1O [Compound 202]
Query: Between a and b , whose recorded IC50 is greater? State your choice using its label.
Response: b
(b: 2 µM, a: 0.126 µM)

###

# ASSAYED TARGET: PRMT5-MEP50 enzyme (Homo sapiens)
# Construct: One virus expresses full length human PRMT5 with Flag-tag at N-terminus
# EXPERIMENT DESCRIPTION: In vitro assay (Assay 1): PRMT5-MEP50 high throughput mass spectrometer assay, inhibition of SAH formation
# Type: biochemical
# COND: individual measurements shown, read-out: pIC50 Assay 1 (converted)
PARAMETER MEASURED: IC50 (µM)

Sample records with IC50:
Nc1ncnc2c1ccn2[C@@H]1O[C@H](CN2CCCCC23CCNCC3)[C@@H](O)[C@H]1O ... 0.00813
Nc1ncnc2c1ccn2[C@@H]1O[C@H](CN2CCCC23CCCNC3)[C@@H](O)[C@H]1O (single isomer, unassigned) [Compound 119] ... 0.155

1 = CN1CCC2(CCCN2C[C@H]2O[C@@H](c3ccc4c(N)ncnn34)[C@H](O)[C@@H]2O)CC1
2 = CN1CC2(CCN(C[C@H]3O[C@@H](n4cnc5c(N)ncnc54)[C@H](O)[C@@H]3O)C2)C1
3 = CN1CC2(CCCN(C[C@H]3O[C@@H](n4cnc5c(N)ncnc54)[C@H](O)[C@@H]3O)C2)C1
4 = NCC[C@@H]1CCCN1C[C@H]1CN(C2C=Cc3c(N)ncnc32)[C@H](O)[C@@H]1O (stereo partly shown)
Query: Place the items in sequence of falling IC50. Write the labels out in the order the request specifies.
Response: 2, 1, 3, 4

###

# ASSAYED TARGET: PRMT5-MEP50 enzyme (Homo sapiens, UniProt O14744)
# Construct: One virus expresses full length human PRMT5 with Flag-tag at N-terminus
# EXPERIMENT DESCRIPTION: In vitro assay (Assay 1): PRMT5-MEP50 high throughput mass spectrometer assay, inhibition of SAH formation
# Assay type: biochemical
# COND: individual measurements shown, read-out: pIC50 Assay 1 (converted)
PARAMETER MEASURED: IC50 (nM)

CN(C)C[C@@H]1CC(F)(F)CN1C[C@H]1O[C@@H](c2ccc3c(N)ncnn23)[C@H](O)[C@@H]1O ... 5500

P = Nc1ncnc2c1ccn2[C@@H]1O[C@H](CN2CCCC3(CCCCN3)C2)[C@@H](O)[C@H]1O (single isomer, unassigned) [Compound 35]
Q = Nc1ncnc2c1ccn2[C@@H]1O[C@H](CN2CC(F)(F)CC23CCN(CCc2ccc(F)cc2)CC3)[C@@H](O)[C@H]1O
Query: Of P and Q , which carries the smaller reported IC50 figure? State your choice using its label.
Response: Q

Values compiled from patent US10898504B2.
